Cited source for all entries: patent US20240034804A1

molecular target: T1, SIRPα protein (Acrobiosystems, Cat. No. SIA-H5225), V1 genotype (human, UniProt P78324 31-370); assay: ELISA, coated SIRPα (SIA-H5225)
T1 construct: Bought protein; also called recombinant SIRPα protein; antigen SIRPα
T1 sequence (P78324 31-370 limits assumed): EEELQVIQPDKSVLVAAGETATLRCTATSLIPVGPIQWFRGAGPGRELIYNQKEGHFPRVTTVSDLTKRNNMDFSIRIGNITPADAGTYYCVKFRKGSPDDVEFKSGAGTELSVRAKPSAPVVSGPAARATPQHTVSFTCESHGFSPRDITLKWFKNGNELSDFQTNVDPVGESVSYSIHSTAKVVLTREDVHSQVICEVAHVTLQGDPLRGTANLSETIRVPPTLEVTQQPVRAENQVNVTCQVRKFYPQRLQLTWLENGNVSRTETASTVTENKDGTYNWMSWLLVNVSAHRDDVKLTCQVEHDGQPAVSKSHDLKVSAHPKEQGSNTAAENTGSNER
OBSERVABLE: EC50 (nM)
// note: answer is a bare numeric in nM

Example cases with answers are listed next.
BINDER | UNIT SPEC | EC50
#4 antibody (humanized anti-SIRPα antibody) (antibody, V domains shown, Full antibody as tested) VH: EVQLVQSGAEVKKPGATVKISCRGSGFNIKDYYIQWVQQAPGKGLEWMGWIDPENGDTKYAPKFQGRVTITADTSTDTAYMELSSLRSEDTAVYYCYAKGPYWGQGTTLTVSS VL: DIVMTQSPDSLAVSLGERATINCKSSQSLFYSSNQKNFLAWYQQKPGQPPKLLIYWASTRESGVPDRFTGSGSGTDFTLTISSVKAEDLAVYYCQQYYSYPPTFGGGTKLEIK | nM | 1.83
#14 antibody (humanized anti-SIRPα antibody) (antibody, human IgG1, kappa, N297A, V domains shown) VH: QVQLQESGPGLVKPSQTLSLTCTVSGGSISSGYYWSWIRQHPGKGLEWIGYISYDGSRYNNPSLKNRVTISVDTSKNQFSLKLSSVTAADTAVYYCAREEYANYFAYWGQGTTVTVSS VL: DIVMTQSPDSLAVSLGERATINCKSSQSLFYSSNQKNFLAWYQQKPGQPPKLLIYWASTRESGVPDRFTGSGSGTDFTLTISSVKAEDLAVYYCQQYYSYPPTFGQGTKLEIKR | nM | 0.683

Would you kindly look at the next entry?
Looking up #13 antibody (humanized anti-SIRPα antibody) (antibody, V domains shown, Full antibody as tested) VH: QVQLVQSGSELKKPGASVKVSCKASGYTFTDYSIHWVRQAPGQGLEWMGWINTETGEPTYADDFKGRFVFSLDTSVSTAYLQICSLKAEDTAVYYCSRGPLYRYDGYGLEYWGQGTLVTVSS VL: DIVMTQSPDSLAVSLGERATINCKASQSVSNDVAWYQQKPGQPPKLLIYYASNRCTGVPDRFSGSGSGTDFTLTISSLQAEDVAVYYCHQDYISPYTFGGGTKLEIK , I found its EC50 recorded as 0.952
